- targetSystem: HLA B*1503 (Homo sapiens, UniProt P01889, A329T/A93T/A95T/C349S/D201E/D98Y/E187L/E204Q/K202T/N87E/Q94N/R155S/R180L/S121R/S35A/V306I/V36M/Y140S/Y91S)
- measurementDescription: biochemical
pIC50: −log10 of the molar value. Where a SMILES comes first, the peptide text is derived from it.
experimentalEndpoint: pIC50

molecule	reportedResult
CC[C@H](C)[C@H](NC(=O)[C@H](CC(C)C)NC(=O)[C@H](CCC(=O)O)NC(=O)[C@@H](NC(=O)[C@@H](NC(=O)[C@H](CCC(N)=O)NC(=O)[C@@H](N)CO)[C@@H](C)O)[C@@H](C)CC)C(=O)N[C@@H](C)C(=O)N[C@@H](Cc1ccccc1)C(=O)O [3102.1343] (H-SQTIELIAF-OH)	9.68
CC(C)C[C@H](NC(=O)[C@@H](N)CC(C)C)C(=O)N[C@@H](Cc1ccccc1)C(=O)N[C@@H](Cc1ccc(O)cc1)C(=O)N[C@H](C(=O)N[C@@H](CCCNC(=N)N)C(=O)N[C@@H](Cc1c[nH]cn1)C(=O)N[C@@H](CCCNC(=N)N)C(=O)N[C@@H](Cc1ccccc1)C(=O)O)[C@@H](C)O [3102.1058] (H-LLFYTRHRF-OH)	9.68
CC(C)[C@H](NC(=O)[C@H](CCC(N)=O)NC(=O)[C@@H](N)CCCNC(=N)N)C(=O)N[C@H](C(=O)N[C@@H](CC(=O)O)C(=O)N[C@@H](Cc1ccccc1)C(=O)N[C@@H](Cc1ccccc1)C(=O)N[C@@H](CCCCN)C(=O)N[C@@H](Cc1ccccc1)C(=O)O)C(C)C [3102.1123] (H-RQVVDFFKF-OH)	9.47
CC[C@H](C)[C@H](NC(=O)[C@@H](NC(=O)[C@@H]1CCCN1C(=O)[C@H](CCC(=O)O)NC(=O)[C@H](CO)NC(=O)[C@H](CO)NC(=O)[C@H](CCSC)NC(=O)[C@@H](N)Cc1ccc(O)cc1)[C@@H](C)CC)C(=O)N[C@@H](Cc1ccccc1)C(=O)O [3102.1094] (H-YMSSEPIIF-OH)	9.52
CC(C)C[C@H](NC(=O)[C@H](CC(N)=O)NC(=O)[C@H](C)NC(=O)[C@H](CO)NC(=O)[C@H](CC(C)C)NC(=O)[C@H](CCCNC(=N)N)NC(=O)[C@H](CC(C)C)NC(=O)[C@@H](N)Cc1ccccc1)C(=O)N[C@@H](Cc1ccccc1)C(=O)O [3102.1266] (H-FLRLSANLF-OH)	9.92
CC[C@H](C)[C@H](NC(=O)[C@@H](NC(=O)[C@H](Cc1ccccc1)NC(=O)[C@H](CCSC)NC(=O)[C@@H](NC(=O)[C@H](CCCCN)NC(=O)[C@@H](N)[C@@H](C)O)C(C)C)C(C)C)C(=O)N[C@@H](CCCNC(=N)N)C(=O)N[C@@H](Cc1ccccc1)C(=O)O [3102.1199] (H-TKVMFVIRF-OH)	7.51
CC[C@H](C)[C@H](NC(=O)[C@H](CC(N)=O)NC(=O)[C@@H](NC(=O)[C@H](C)NC(=O)[C@H](CS)NC(=O)[C@H](CCCNC(=N)N)NC(=O)[C@@H](NC(=O)[C@@H](N)CO)[C@@H](C)CC)[C@@H](C)O)C(=O)N[C@@H](Cc1ccccc1)C(=O)O [3102.1321] (H-SIRCATNIF-OH)	7.70
CC[C@H](C)[C@H](NC(=O)[C@H](C)NC(=O)[C@H](Cc1ccccc1)NC(=O)[C@H](CCC(N)=O)NC(=O)[C@@H](N)Cc1c[nH]c2ccccc12)C(=O)N[C@@H](Cc1c[nH]cn1)C(=O)N[C@@H](Cc1ccc(O)cc1)C(=O)N[C@@H](CO)C(=O)N[C@@H](Cc1ccccc1)C(=O)O [3102.1096] (H-WQFAIHYSF-OH)	8.35
CSCC[C@H](NC(=O)[C@H](C)N)C(=O)N[C@@H](CCCCN)C(=O)N[C@H](C(=O)N[C@@H](CC(=O)O)C(=O)N[C@@H](C)C(=O)N[C@@H](CC(N)=O)C(=O)N[C@@H](Cc1ccc(O)cc1)C(=O)N[C@@H](Cc1ccccc1)C(=O)O)C(C)C [3102.1268] (H-AMKVDANYF-OH)	9.82
CC[C@H](C)[C@H](NC(=O)[C@H](CO)NC(=O)[C@@H](NC(=O)[C@H](Cc1ccccc1)NC(=O)CNC(=O)[C@@H](NC(=O)[C@@H](NC(=O)[C@H](CCCCN)NC(=O)[C@@H](N)CCCCN)C(C)C)[C@@H](C)CC)C(C)C)C(=O)O [3102.1208] (H-KKVIGFVSI-OH)	8.12
CSCC[C@H](NC(=O)[C@H](Cc1c[nH]cn1)NC(=O)[C@H](CCC(N)=O)NC(=O)CNC(=O)[C@@H]1CCCN1C(=O)[C@@H]1CCCN1C(=O)[C@H](C)NC(=O)[C@H](CO)NC(=O)[C@@H](N)CS)C(=O)O [3102.1226] (H-CSAPPGQHM-OH)	7.62
CC[C@H](C)[C@H](NC(=O)[C@@H](N)CCCNC(=N)N)C(=O)N[C@@H](CCCNC(=N)N)C(=O)N[C@@H](CCCNC(=N)N)C(=O)N[C@@H](Cc1ccccc1)C(=O)N[C@@H](CCCNC(=N)N)C(=O)N[C@@H](CCCNC(=N)N)C(=O)N1CCC[C@H]1C(=O)N[C@@H](CCSC)C(=O)O [3102.0681] (H-RIRRFRRPM-OH)	7.52
CC[C@H](C)[C@H](NC(=O)[C@H](CO)NC(=O)[C@@H](N)CC(C)C)C(=O)N[C@@H](Cc1ccccc1)C(=O)N[C@@H](Cc1ccccc1)C(=O)N[C@@H](Cc1ccc(O)cc1)C(=O)N[C@@H](CO)C(=O)N[C@@H](CO)C(=O)N[C@@H](Cc1ccccc1)C(=O)O [3102.1177] (H-LSIFFYSSF-OH)	9.66
